Data provenance: paper PMC3172300

Biological target: DLAR D1 (membrane-proximal PTP domain of DLAR) (Drosophila melanogaster)
Test: SPR; Biacore-2000; DLAR PTP domains immobilised on CM5 chips by amine coupling; peptides as analyte at 50-700 µM; 25°C; 10 mM HEPES pH 8.0, 150 mM NaCl, 10 mM DTT, 3 mM EDTA; 5 µL/min; two independent sites fit for the double domain constructs, single-site fit for DLAR D1 and DLAR D2
Square brackets hold non-standard residues; d marks the D form. Ends that are not written are not given here. pY = N[C@@H](Cc1ccc(OP(=O)(O)O)cc1)C(=O)O
property_measured: pKd
In textbook form, pKd equals minus log to base ten of the concentration in mol/L.

Request the reported pKd associated with TAEPD[pY]GALYE [Cuticle Peptide TAEPD(pY)GALYE]
4.02
